Biological target: human EP4 receptor (Homo sapiens, UniProt P35408)
Construct: expressed in transfected cells
Sequence (P35408 whole entry): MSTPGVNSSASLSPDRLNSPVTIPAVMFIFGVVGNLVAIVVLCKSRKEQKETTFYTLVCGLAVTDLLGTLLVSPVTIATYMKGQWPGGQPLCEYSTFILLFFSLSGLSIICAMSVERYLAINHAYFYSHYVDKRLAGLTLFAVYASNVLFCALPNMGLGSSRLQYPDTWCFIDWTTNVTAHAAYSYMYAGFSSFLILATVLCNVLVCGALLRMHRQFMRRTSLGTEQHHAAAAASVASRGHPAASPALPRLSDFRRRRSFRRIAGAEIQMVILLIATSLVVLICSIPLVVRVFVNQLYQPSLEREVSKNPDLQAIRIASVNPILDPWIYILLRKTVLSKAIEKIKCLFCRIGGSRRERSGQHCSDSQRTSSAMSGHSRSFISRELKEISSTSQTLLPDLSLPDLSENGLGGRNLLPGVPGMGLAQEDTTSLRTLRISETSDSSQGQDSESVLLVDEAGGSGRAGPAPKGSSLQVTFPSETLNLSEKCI
Assay: Binding ability to human EP receptors ([3H]PGE2 displacement), EP4
Conditions: membranes expressing human EP4; [3H]PGE2 1 nM; Cheng-Prusoff; read-out: pKi (M) EP4 (converted)
METRIC: Ki

In [3]: df
Out[3]:
                            molecule_smiles                           measured_target     result
0  O=C(O)Cc1cccc(NC(=O)c2ccc(-c3ccc(OC(F)(F)F)cc3)o2)c1  human EP4 receptor (Homo sapiens, UniProt P35408)  > 1e-05 M

In the following, a different compound is considered.
# compound O=C(O)/C=C/c1cccc(NC(=O)c2cc(-c3ccc(F)cc3)ccc2F)c1 ; its Ki = > 1e-05 M

Sourced from patent US7326732B2
